Value source: ChEMBL document CHEMBL5241131

Measured Ki by item
- assayed_system: Cyclin-dependent kinase 5/CDK5 activator 1 (Homo sapiens)
- Sequence (Q00535 whole entry): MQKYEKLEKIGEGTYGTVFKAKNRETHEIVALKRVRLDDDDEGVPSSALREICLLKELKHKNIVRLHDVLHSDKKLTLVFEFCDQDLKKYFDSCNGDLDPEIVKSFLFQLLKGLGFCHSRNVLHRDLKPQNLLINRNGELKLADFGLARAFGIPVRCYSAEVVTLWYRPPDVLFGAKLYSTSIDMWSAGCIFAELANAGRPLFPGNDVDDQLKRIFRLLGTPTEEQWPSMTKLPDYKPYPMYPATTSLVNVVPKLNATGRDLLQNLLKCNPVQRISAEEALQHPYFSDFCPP
- Sequence (Q15078 whole entry, further chain): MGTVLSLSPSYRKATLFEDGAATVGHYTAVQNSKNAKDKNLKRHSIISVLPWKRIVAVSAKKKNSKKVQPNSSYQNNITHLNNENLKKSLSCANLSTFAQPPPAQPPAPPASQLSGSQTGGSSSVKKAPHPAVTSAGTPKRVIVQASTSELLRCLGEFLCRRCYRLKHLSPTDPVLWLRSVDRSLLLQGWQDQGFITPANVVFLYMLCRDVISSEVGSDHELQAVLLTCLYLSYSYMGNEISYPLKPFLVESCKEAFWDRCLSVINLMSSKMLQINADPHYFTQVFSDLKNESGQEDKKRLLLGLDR
- protocol_summary: Inhibition of CDK5/p25 (unknown origin) assessed as inhibition constant incubated for 30 to 60 mins presence of dithiothreitol by Cheng-Prusoff equation analysis
# value in nM; strip the unit string

Example entries and their recorded answers appear below.
>>> df
                              sample_smiles  experimental_result
0  Cn1cc(-c2nc(Nc3ccc(S(N)(=O)=O)cc3)ncc2F)cn1                   19
1  Cn1cc(-c2nc(Nc3cccc(S(N)(=O)=O)c3)ncc2Cl)cn1                   92
2  Cn1cc(-c2nc(Nc3ccc(S(N)(=O)=O)cc3)ncc2Cl)cn1                   33
3  Cc1nn(C)cc1-c1nc(NC2CCN(S(C)(=O)=O)CC2)ncc1Cl                    2
4  Cn1cc(-c2nc(NC3CCN(S(C)(=O)=O)CC3)ncc2F)cn1                   36

// query For the compound shown here, Cn1cc(-c2nc(Nc3ccc(S(C)(=O)=O)cc3)ncc2F)cn1 , give the reported Ki.
// result 42

// query For the compound shown here, Cn1cc(-c2nc(Nc3cccc(S(N)(=O)=O)c3)ncc2F)cn1 , give the reported Ki.
// result 77

// query For the compound shown here, Cn1cc(-c2nc(NC3CCN(S(C)(=O)=O)CC3)ncc2Cl)cn1 , give the reported Ki.
// result 9

// query For the compound shown here, Cn1cc(-c2nc(Nc3ccc(S(C)(=O)=O)cc3)ncc2Cl)cn1 , give the reported Ki.
// result 36
